Task for the reader: assign each of the following compounds its reported Cmax.
Test: in vivo
Protocol conditions: female, FVB, mouse, po, 10 mg/kg, Cmax ± SD, brain
Provide the reading as a plain figure in nM.

Data request: Please give the measured Cmax for this compound: N#Cc1sc2nc(-c3ccc4c(c3)OCO4)ccc2c1N [IND52851]
Data returned: 1020

Data request: Name the reported Cmax value associated with the compound CN1CCN(c2ccc(Nc3ccnc4cc(Cl)ccc34)cc2)CC1 [IND45193]
Data returned: 1610

* * *

Test: in vitro
Protocol conditions: mouse
pEC50: −log10 of the molar value.
Measurement label: pEC50

Data request: Any idea what its pEC50 is? The compound is CC(NCCC(c1ccccc1)c1ccccc1)c1ccccc1 (stereo not shown)
Data returned: 5.02 to 5.37
